Source of measurements: patent US11384063B2

TESTED ON: ERα (Homo sapiens)
EXPERIMENT DESCRIPTION: ERE luciferase reporter gene assay in T47D-KBluc cells (target engagement)
Assay type: cell-based
Parameters: T47D human breast cancer cells stably transfected with estrogen responsive element/promoter/luciferase reporter gene; host or cells: T47D-KBluc cells
PARTICULARS: 10% FBS, 24 hours, Table 2 VHL centric PROTACs, read-out: IC50
MEASUREMENT LABEL: pIC50
Reminder that pIC50 is minus the log10 of a molar concentration.

What value of pIC50 has been recorded for this entry: Cc1ncsc1-c1ccc(CNC(=O)[C@@H]2C[C@@H](O)CN2C(=O)[C@@H](NC(=O)CN2CCC(N3CC(OCCOc4ccc(Oc5c(-c6ccc(Br)cc6)sc6cc(O)ccc56)cc4)C3)CC2)C(C)(C)C)cc1 [Compound 160]
8.20

New cases:
Returns the measured pIC50 for the input molecule. Input: Cc1ncsc1-c1ccc([C@H](C)NC(=O)[C@@H]2C[C@@H](O)CN2C(=O)[C@@H](NC(=O)COCCOCCOCCOc2ccc(Oc3c(-c4ccc(Cl)cc4)sc4cc(O)ccc34)cc2)C(C)(C)C)cc1 [Compound 119]
8.96

====

TESTED ON: ERα (Homo sapiens)
EXPERIMENT DESCRIPTION: ERE luciferase reporter gene assay in T47D-KBluc cells (target engagement)
Format: cell-based
Parameters: T47D human breast cancer cells stably transfected with estrogen responsive element/promoter/luciferase reporter gene; host or cells: T47D-KBluc cells
PARTICULARS: 10% FBS, 24 hours, Table 3 cereblon centric PROTACs, read-out: ER-α Luciferase IC50
MEASUREMENT LABEL: IC50 (nM)
The reply should be a number in nM, with the unit left off.

Solved entries (count: 5):
Request - read-out IC50 | tested on ERα (Homo sapiens) | compound O=C1CCC(N2Cc3cc(NCCCOCCCOCCCOc4ccc(Oc5c(-c6ccc(Br)cc6)sc6cc(O)ccc56)cc4)ccc3C2=O)C(=O)N1 (stereo not shown)
5.6

Form field: IC50 recorded for O=C1CCC(N2C(=O)c3ccc(N4CCN(CC5CN(CCOc6ccc(Oc7c(-c8ccc(Br)cc8)sc8cc(O)ccc78)cc6)C5)CC4)cc3C2=O)C(=O)N1 (stereo not shown) with ERα (Homo sapiens) (enter value)
4.5

What reported IC50 corresponds to O=C1CCC(N2Cc3cc(N4CCN(C5CC(Oc6ccc(Oc7c(-c8ccc(Br)cc8)sc8cc(O)ccc78)cc6)C5)CC4)ccc3C2=O)C(=O)N1 (stereo not shown) on ERα (Homo sapiens)?
7.7

# value lookup — system ERα (Homo sapiens), readout IC50, item O=C1CCC(N2Cc3cc(N4CCN(CC5CCN(CCOc6ccc(Oc7c(-c8ccc(C(F)(F)F)cc8)sc8cc(O)ccc78)cc6)CC5)CC4)ccc3C2=O)C(=O)N1 (stereo not shown)
8.4

Short answer please: IC50, ERα (Homo sapiens), entry O=C1CCC(N2C(=O)c3ccc(N4CC(CN5CCC(c6ccc(Oc7c(-c8ccc(Br)cc8)sc8cc(O)ccc78)cc6)CC5)C4)cc3C2=O)C(=O)N1 (stereo not shown)
2.8

Note: attention shifts to another entry.
# query: IC50 | item O=C1CCC(N2Cc3cc(N4CCC(N5CC(Oc6ccc(Oc7c(-c8ccc(Br)cc8)sc8cc(O)ccc78)cc6)C5)CC4)ccc3C2=O)C(=O)N1 (stereo not shown) | system: ERα (Homo sapiens)
2.1

====

TESTED ON: UniProt:P03372
EXPERIMENT DESCRIPTION: ERE luciferase reporter gene assay in T47D-KBluc cells (target engagement)
Assay type: cell-based
Parameters: T47D human breast cancer cells stably transfected with estrogen responsive element/promoter/luciferase reporter gene; host or cells: T47D-KBluc cells
PARTICULARS: 10% FBS, 24 hours, Table 1 cereblon centric PROTACs, read-out: ER-α Luciferase IC50
Item-by-item account of log10 IC50
Parameter value (number): base-10 log of IC50 in nM.

Worked cases, answers included:
Would you mind telling me what log10 IC50 value was observed for O=C1CCC(N2C(=O)c3cccc(NCCOCCOCCOCCOCCOc4ccc(Oc5c(-c6ccc(Br)cc6)sc6cc(O)ccc56)cc4)c3C2=O)C(=O)N1 (stereo not drawn) [Compound 20] ?
1.60

Item under review: O=C1CCC(N2Cc3cc(OC4CC5(CCN(CCOc6ccc(Oc7c(-c8ccc(Br)cc8)sc8cc(O)ccc78)cc6)CC5)C4)ccc3C2=O)C(=O)N1 (stereo not drawn) [Compound 50] . Reported log10 IC50?
0.34

Recorded log10 IC50 for O=C1CCC(N2Cc3cc(OCCOCCOc4ccc(Oc5c(-c6ccc(Br)cc6)sc6cc(O)ccc56)cc4)ccc3C2=O)C(=O)N1 (stereo not drawn) [Compound 33] , please?
0.43

I have this compound here, O=C1CCC(N2Cc3cc(NCCCOCCOc4ccc(Oc5c(-c6ccc(Br)cc6)sc6cc(O)ccc56)cc4)ccc3C2=O)C(=O)N1 (stereo not drawn) [Compound 85] , and I need its recorded log10 IC50.
0.78

Field request: log10 IC50 | item: O=C1CCC(N2Cc3cc(OCCCOCCOCCOc4ccc(Oc5c(-c6ccc(Br)cc6)sc6cc(O)ccc56)cc4)ccc3C2=O)C(=O)N1 (stereo not drawn) [Compound 43]
0.79

Now look at this entry.
Please look up its log10 IC50: O=C1CCC(N2Cc3cc(NCCCN4CCN(CCOc5ccc(Oc6c(-c7ccc(Br)cc7)sc7cc(O)ccc67)cc5)CC4)ccc3C2=O)C(=O)N1 (stereo not drawn) [Compound 71]
-0.03

====

TESTED ON: ERα (Homo sapiens, UniProt P03372)
Sequence (P03372 1-595): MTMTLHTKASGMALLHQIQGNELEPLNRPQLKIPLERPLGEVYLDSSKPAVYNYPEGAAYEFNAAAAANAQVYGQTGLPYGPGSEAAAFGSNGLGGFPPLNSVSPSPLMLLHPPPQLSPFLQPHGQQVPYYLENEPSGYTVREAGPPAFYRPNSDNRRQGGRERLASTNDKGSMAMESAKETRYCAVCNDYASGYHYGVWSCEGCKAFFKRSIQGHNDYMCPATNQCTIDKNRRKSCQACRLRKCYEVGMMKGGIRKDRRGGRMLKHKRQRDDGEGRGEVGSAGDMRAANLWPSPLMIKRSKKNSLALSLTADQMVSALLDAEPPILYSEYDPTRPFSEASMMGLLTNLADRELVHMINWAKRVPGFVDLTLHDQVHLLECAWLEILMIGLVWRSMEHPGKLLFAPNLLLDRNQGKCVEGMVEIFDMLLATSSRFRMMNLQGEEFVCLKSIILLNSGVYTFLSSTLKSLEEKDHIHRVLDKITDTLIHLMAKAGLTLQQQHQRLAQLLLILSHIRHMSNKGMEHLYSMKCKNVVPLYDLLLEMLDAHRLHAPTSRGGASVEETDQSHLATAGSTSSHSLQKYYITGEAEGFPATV
EXPERIMENT DESCRIPTION: Estrogen receptor-alpha (ERα) degradation assay in MCF7 cells using In-Cell Western assay
Format: cell-based
Parameters: assessed for their activity in degrading ERα in MCF-7 cells via western blot; endogenous in cells; host or cells: MCF7 cells
PARTICULARS: ER-alpha degradation in MCF7 cells, 5 days of incubation
MEASUREMENT LABEL: DC50

Here are 2 molecules together with their reported answers.
Look up DC50 with ERα (Homo sapiens, UniProt P03372) for this molecule: O=C1CCC(N2Cc3cc(N4CCN(CC5CCN(c6ccc(Oc7c(-c8ccc(O)cc8)sc8cc(O)ccc78)cc6)CC5)CC4)ccc3C2=O)C(=O)N1 (centres unmarked)
1 to 10 nM

Form: Entry = O=C1CCC(N2Cc3cc(N4CCN(C5CCN(CCOc6ccc(Oc7c(-c8ccc(C(F)(F)F)cc8)sc8cc(O)ccc78)cc6)CC5)CC4)ccc3C2=O)C(=O)N1 (centres unmarked) | System = ERα (Homo sapiens, UniProt P03372) | DC50 = ____
10 to 100 nM

New cases:
# query: DC50 | item O=C1CCC(N2C(=O)c3ccc(N4CCN(CC5CCN(CCOc6ccc(Oc7c(-c8ccc(Br)cc8)sc8cc(O)ccc78)cc6)CC5)CC4)cc3C2=O)C(=O)N1 (centres unmarked) | system: ERα (Homo sapiens, UniProt P03372)
10 to 100 nM

Lookup: DC50 / ERα (Homo sapiens, UniProt P03372) / O=C1CCC(N2Cc3nc(N4CCN(CC5CCN(c6ccc(Oc7c(-c8ccc(Br)cc8)sc8cc(O)ccc78)cc6F)CC5)CC4)ccc3C2=O)C(=O)N1 (centres unmarked)
10 to 100 nM

Give DC50 (ERα (Homo sapiens, UniProt P03372)) of the following molecule: O=C1CCC(N2Cc3c(ccc(N4CCN(C5CCN(CCOc6ccc(Oc7c(-c8ccc(C(F)(F)F)cc8)sc8cc(O)ccc78)cc6)CC5)CC4)c3F)C2=O)C(=O)N1 (centres unmarked)
1 to 10 nM

====

Measured pIC50 by item
TESTED ON: UniProt:P03372
EXPERIMENT DESCRIPTION: ERE luciferase reporter gene assay in T47D-KBluc cells (target engagement)
Format: cell-based
Design: T47D human breast cancer cells stably transfected with estrogen responsive element/promoter/luciferase reporter gene; host or cells: T47D-KBluc cells
PARTICULARS: 10% FBS, 24 hours, Table 1 cereblon centric PROTACs, read-out: ER-α Luciferase IC50
Just so you know, pIC50 here is -log10 of the concentration in molar units; reply with that number alone.

Example cases with answers are listed next.
Give its pIC50 value. Item: O=C1CCC(N2C(=O)c3ccc(OCCCOCCCOCCOc4ccc(Oc5c(-c6ccc(Br)cc6)sc6cc(O)ccc56)cc4)cc3C2=O)C(=O)N1 (stereo not drawn)
7.67

Would you mind telling me what pIC50 value was observed for O=C1CCC(N2Cc3cc(OCCCOCCCOCCOc4ccc(Oc5c(-c6ccc(Br)cc6)sc6cc(O)ccc56)cc4)ccc3C2=O)C(=O)N1 (stereo not drawn) ?
8.19

Which value of pIC50 has been reported for O=C1CCC(N2C(=O)c3cccc(NCCN4CCN(CCOc5ccc(Oc6c(-c7ccccc7)sc7cc(O)ccc67)cc5)CC4)c3C2=O)C(=O)N1 (stereo not drawn) in the records?
9.20

Further cases:
Query: pIC50; subject: O=C1CCC(N2C(=O)c3ccc(OCCCOCCCOc4ccc(Oc5c(-c6ccc(Br)cc6)sc6cc(O)ccc56)cc4)cc3C2=O)C(=O)N1 (stereo not drawn)
7.47

Reported pIC50, compound O=C1CCC(N2Cc3cc(NCCCOCCCOCCOc4ccc(Oc5c(-c6ccc(Br)cc6)sc6cc(O)ccc56)cc4)ccc3C2=O)C(=O)N1 (stereo not drawn) : ____
8.32

Would you mind telling me what pIC50 value was observed for O=C1CCC(N2C(=O)c3ccc(CCCOC4CCN(CCOc5ccc(Oc6c(-c7ccc(Br)cc7)sc7cc(O)ccc67)cc5)CC4)cc3C2=O)C(=O)N1 (stereo not drawn) ?
8.80
